# Study target: Neurogenic locus notch homolog protein 3 (Homo sapiens)
# Assay method text: small molecules binding NOTCH3 protein – biochemical, 635/667 nm fluorescence, primary screen (AID 1096)
# Applied conditions: small-molecule microarray, 635 nm fluorescence, higher = more signal
Assay readout: composite z-score
Response field accepts a number only; no unit should be typed.

{"columns": ["Mol", "composite z-score"],
 "data": [
  ["CC(=O)NCCCC[C@@H]1NC(=O)[C@@H]2C[C@H](C(=O)NCCCCCC[N+](C)(C)C)[C@H](c3cccc(OCCO)c3)N2C1=O", 1.02]
]}

Please look up its composite z-score: CO[C@H]1O[C@H](CO)[C@@H](OC(=O)Nc2ccccc2-c2ccccc2)[C@H](OC(=O)Nc2ccccc2-c2ccccc2)[C@H]1OC(=O)Nc1ccccc1-c1ccccc1
1.08

For COc1ccc([Si](C)(C)[C@H]2[C@H](CC(=O)N(CCO)Cc3ccccc3)O[C@@]3(C(=O)N(Cc4cccc(N5C(=O)c6cccc7cccc5c67)c4)c4ccccc43)[C@@H]2C)cc1 , what is its reported composite z-score?
0.228

Fill in: composite z-score of [N-]=[N+]=NCc1ccccc1C[C@]1(C(N)=O)N=C(c2ccc(OCCCO)cc2)O[C@H]1c1ccccc1N=[N+]=[N-] is ___
0.616

Suppose we examine the compound COc1ccc([Si](C)(C)[C@@H]2[C@@H](CCn3cc([C@H](O)c4ccccc4)nn3)O[C@]3(C(=O)N(C)c4ccccc43)[C@H]2C)cc1 ; what composite z-score value has been reported?
-0.0523

FYI, the data here is from PubChem BioAssay.
